- Tested on: COLO 205
- PROTOCOL_NOTES: Cytotoxicity against human COLO205 cells after 48 hrs by MTT assay
- Format: functional, cell-based
- CONDITION_PARAMETERS: COLO 205, 48 h
ENDPOINT_NAME: pIC50
One number for each entry, as −log10 of the molar value.

Past entries and their recorded results:
* Nc1n[nH]c2c3c(oc(=O)c12)-c1ccc2ccccc2c1OCC3 | 4.70
* Cc1cc2c(cc1C)-c1oc(=O)c3c(N)n[nH]c3c1CCO2 | 4.22

For this compound ( COc1ccc2c(c1)-c1oc(=O)c3c(N)n[nH]c3c1CCO2 ), measured pIC50 is 4.40

* * *

- PROTOCOL_NOTES: Cytotoxicity against rat IEC-6 cells assessed as cell viability up to 100 uM after 24 to 48 hrs by MTT assay
- Format: cell-based
ENDPOINT_NAME: Activity

- Nc1n[nH]c2c1C(=O)NN=C1c3ccccc3OCCC12 (stereo not drawn): Non-toxic
- Nc1n[nH]c2c3c(oc(=O)c12)-c1ccc2ccccc2c1OCC3: Non-toxic
- Cc1cc2c(cc1C)-c1oc(=O)c3c(N)n[nH]c3c1CCO2: Non-toxic
- Nc1n[nH]c2c3c(oc(=O)c12)-c1ccccc1OCC3: Non-toxic
- COc1ccc2c(c1)-c1oc(=O)c3c(N)n[nH]c3c1CCO2: Non-toxic
- Nc1n[nH]c2c3c(oc(=O)c12)-c1cc(Cl)ccc1SC3: Non-toxic
- Nc1n[nH]c2c1C(=O)NN=C1c3cc(Cl)ccc3SCC12 (stereo not drawn): Non-toxic

As a next step, examine the molecule that follows.
For this molecule ( Nc1n[nH]c2c3c(oc(=O)c12)-c1ccccc1SC3 ), measured Activity is Non-toxic
